Attribute: koff
- System name: T1, recombinant human HER2 extracellular domain protein (human, UniProt P04626 23-652)
- T1 construct: range 23-652; Range is printed for the immunogen/panning protein; also called ErbB2; recombinant HER2 protein
- Procedure details: BLI, Protein A capture

| Binder | koff |
| --- | --- |
| 2126-Hu-H32 (antibody, IgG1, V domains shown, IgG1/Cκ) VH: QVQLVQSGSELKKPGASVKVSCKASGYTFTDYSMHWVRQAPGQGLEWMGWINTETGSPTYADDFKGRFVFSLDTSVSTAYLQISSLKAEDTAVYFCVRVGRYDYAMDYWGQGTTVTVSS VL: DIQMTQSPSSLSASVGDRVTITCKASQDVYTAVAWYQQKPGKAPKLLINSASYRYTGVPSRFSGSGSGTDFTLTISSLQPEDFATYYCQQHYSTPPTFGGGTKVEIK | 0.000998 s⁻¹ |
| 2126-Hu-L17 (antibody, IgG1, V domains shown, IgG1/Cκ) VH: QVQLVQSGSELKKPGASVKVSCKASGYTFTDYSMHWVRQAPGQGLEWMGWINTETGEPTYADDFKGRFVFSLDTSVSTAYLQISSLKAEDTAVYFCVRVGRYDYAMDYWGQGTTVTVSS VL: DIQMTQSPSSLSASVGDRVTITCKASQDVYTAVAWYQQKPGKAPKLLINSASYRQTGVPSRFSGSGSGTDFTLTISSLQPEDFATYYCQQHYSTPPTFGGGTKVEIK | 0.000786 s⁻¹ |
